- Target Or System: PDZD7 P1P2 G103R (Mus musculus, UniProt E9Q9W7, G103R)
- Construct: PDZ2ext (206-313), P1P2 (81-313); GST (followed by TEV site) (N, cleaved yes); made in house; host or cells: E. coli BL21 DE3
- Sequence (E9Q9W7 81-313 G103R): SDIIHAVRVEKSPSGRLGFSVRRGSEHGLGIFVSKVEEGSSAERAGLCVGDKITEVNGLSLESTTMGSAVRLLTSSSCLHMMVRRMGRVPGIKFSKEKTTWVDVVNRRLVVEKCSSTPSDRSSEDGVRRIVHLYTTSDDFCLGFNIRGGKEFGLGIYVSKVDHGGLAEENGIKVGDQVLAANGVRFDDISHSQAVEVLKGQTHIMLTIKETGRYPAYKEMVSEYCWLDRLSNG
- Measurement Description: Fluorescence titration of P1P2 G103R
- Assay type: binding, murine
Where no end group is shown, it is not given here.
Endpoint: pKd
Entry type: numeric. Quantity: pKd, the -log10 of concentration in molar units.

Check the records and state pKd for VELRRIPIADTHL [ADGRV1pbm]
5.72
